# Test system: GLI1 mRNA expression
# ASSAY_PROTOCOL: RT-qPCR GLI1 mRNA expression in OHCs-stimulated C3H10T1/2 MEFs
# Format: cell-based, mouse
# ASSAY_CONTEXT: C3H10T1/2 MEFs, 10 μM, relative to Hh-agonist OHCs (set as 100%), mean ± SEM
For each entry below, report its % Gli1 Expression value.
# include the unit after the value

Prompt: Given COc1cccc(C(Nc2cc(C)ccn2)c2ccc3cccnc3c2O)c1C (racemic) [Compound 2] , state its recorded % Gli1 Expression.
Response: 7.0 ± 1.4%

Prompt: Would you kindly repeat that for Cc1ccnc(NC(c2cccc(Cl)c2Cl)c2ccc3cccnc3c2O)c1 (racemic) [Compound 10] ?
Response: 18.2 ± 1.5%

Prompt: Would you kindly repeat that for Cc1ccc2ccc(C(Nc3ccccn3)c3ccc(Cl)c(Cl)c3)c(O)c2n1 (racemic) [Compound 11] ?
Response: 16.6 ± 0.7%

Prompt: Would you kindly repeat that for Cc1ccccc1C(Nc1ccccn1)c1ccc2cccnc2c1O (racemic) [Compound 9] ?
Response: 10.6 ± 1.9%

====

# ASSAYED_SYSTEM: GLI1-ZFD (Homo sapiens, UniProt P08151)
# Construct: GLI1-ZFD Expression and Purification; made in house
# Sequence (P08151 234-388 limits assumed): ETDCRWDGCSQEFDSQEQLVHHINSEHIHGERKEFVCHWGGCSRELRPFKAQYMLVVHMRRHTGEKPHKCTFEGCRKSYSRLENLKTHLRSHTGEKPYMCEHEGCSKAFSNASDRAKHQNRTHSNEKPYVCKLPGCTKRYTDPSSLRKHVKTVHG
# ASSAY_PROTOCOL: Microscale thermophoresis (MST) binding to GLI1-ZFD
# ASSAY_CONTEXT: Table 7, Ave ± SEM
Define the label as yes (1) when Kd is strictly less than 10 µM and as no (0) in all remaining cases.

Prompt: State whether 10 µM exceeds Kd recorded for Cc1ccc2ccc(C(Nc3ccccn3)c3ccccc3)c(O)c2n1 (stereo not shown) .
Response: no (0)

Prompt: Would you kindly repeat that for Cc1ccc2ccc(C(Nc3ccccn3)c3ccncc3)c(O)c2n1 (stereo not shown) ?
Response: yes (1)

Prompt: Would you kindly repeat that for CCN(CC)c1ccccc1C(Nc1ccccn1)c1ccc2ccc(C)nc2c1O (stereo not shown) ?
Response: no (0)

Prompt: Would you kindly repeat that for Cc1ccc2ccc(C(Nc3ccccn3)c3ccc(-n4ccnc4)cc3)c(O)c2n1 (stereo not shown) ?
Response: no (0)

Prompt: Would you kindly repeat that for Cc1ccc2ccc(C(Nc3ccccn3)c3ccc(-n4cccn4)cc3)c(O)c2n1 (stereo not shown) ?
Response: no (0)

Prompt: Would you kindly repeat that for Cc1ccc2ccc(C(Nc3ccccn3)c3ccc(N4CCCC4=O)cc3)c(O)c2n1 (stereo not shown) ?
Response: yes (1)

Prompt: Would you kindly repeat that for Cc1ccc2ccc(C(Nc3ccccn3)c3ccc(-n4cccc4)cc3)c(O)c2n1 (stereo not shown) ?
Response: no (0)

====

# System: DAOY (MB)
# ASSAY_PROTOCOL: MTS anti-proliferative assay in DAOY cells
# Format: cell-based
# ASSAY_CONTEXT: Homo sapiens, Daoy; Table 8, 48 h, mean ± SEM
QUANTITY_NAME: GI50 (µM)
The response must be a number in µM with no trailing unit.

Prompt: Given Cc1ccc2ccc(C(Nc3ccccn3)c3ccc([N+](=O)[O-])cc3)c(O)c2n1 (stereo not drawn) , state its recorded GI50.
Response: 75.2

Prompt: Would you kindly repeat that for Cc1ccc2ccc(C(Nc3ccccn3)c3ccc(N4CCCC4)cc3)c(O)c2n1 (stereo not drawn) ?
Response: 12.8

Prompt: Would you kindly repeat that for Cc1ccc2ccc(C(Nc3ccccn3)c3ccncc3)c(O)c2n1 (stereo not drawn) ?
Response: 1.2

Prompt: Would you kindly repeat that for Cc1ccc2ccc(C(Nc3ccccn3)c3ccc(N4CCCCC4)cc3)c(O)c2n1 (stereo not drawn) ?
Response: 22.6

Prompt: Would you kindly repeat that for CCN(CC)c1ccc(C(Nc2ccccn2)c2ccc3ccc(C)nc3c2O)cc1 (stereo not drawn) ?
Response: 14.1

Prompt: Would you kindly repeat that for Cc1ccc2ccc(C(Nc3ccccn3)c3ccc(N(C)C)cc3)c(O)c2n1 (stereo not drawn) ?
Response: 18.3

Prompt: Would you kindly repeat that for Cc1ccc2ccc(C(Nc3ccccn3)c3ccc(N4CCOCC4)cc3)c(O)c2n1 (stereo not drawn) ?
Response: 24.2
